Target: UniProtKB P08253
Assay: Resistance to decomposition by matrix protease MMP2
Assay type: in vitro ADME
Conditions: isolated matrix protease MMP2, read-out: amount retained after treatment with MMP2
From the text: Furthermore, the resistance of the present invention to the decomposition by matrix protease (MMP) was examined. […] However, only about 50% of compound 1 was retained.
measure.name: remaining at 48 h

Query: Fill in the blank: the reported remaining at 48 h of CC(C)C[C@H](NC(=O)CNC(=O)[C@H](Cc1ccccc1)NC(=O)[C@H](CO)NC(=O)[C@H](CC(N)=O)NC(=O)[C@H](Cc1c[nH]c2ccccc12)NC(=O)[C@H](CC(N)=O)NC(=O)[C@@H](N)Cc1ccc(O)cc1)C(=O)N[C@@H](CCCNC(=N)N)C(=O)N[C@@H](Cc1ccccc1)C(N)=O [Kisspeptin-10, reference compound] is ____.
Reply: ~65%

----------
Assay: Half-life of the compound in the serum
Settings: serum, t1/2, in the serum
Would you kindly list half-life for each of these compounds?
Give the value in h but do not write h after it.

Query: Fill in the blank: the reported half-life of CC(C)C[C@H](/C=C/CNC(=O)[C@H](Cc1ccccc1)NC(=O)c1ccc(F)cc1)C(=O)N[C@@H](CCCN=C(N)N)C(=O)N[C@@H](Cc1c[nH]c2ccccc12)C(N)=O is ____.
Reply: 38

Query: Fill in the blank: the reported half-life of CC(C)C/C(=C\[C@@H](O)CNC(=O)[C@H](Cc1ccccc1)NC(=O)c1ccc(F)cc1)C(=O)N[C@@H](CCCNC(=N)N)C(=O)N[C@@H](Cc1c[nH]c2ccccc12)C(N)=O is ____.
Reply: 60

Query: Fill in the blank: the reported half-life of CC(C)C/C(=C\[C@H](O)CNC(=O)[C@H](Cc1ccccc1)NC(=O)c1ccc(F)cc1)C(=O)N[C@@H](CCCN=C(N)N)C(=O)N[C@@H](Cc1c[nH]c2ccccc12)C(N)=O is ____.
Reply: 1100

Query: Fill in the blank: the reported half-life of CC(C)C[C@H](CCCNC(=O)[C@H](Cc1ccccc1)NC(=O)c1ccc(F)cc1)C(=O)N[C@@H](CCCNC(=N)N)C(=O)N[C@@H](Cc1c[nH]c2ccccc12)C(N)=O is ____.
Reply: 45

Query: Fill in the blank: the reported half-life of CC(C)C/C(=C\CCNC(=O)[C@H](Cc1ccccc1)NC(=O)c1ccc(F)cc1)C(=O)N[C@@H](CCCNC(=N)N)C(=O)N[C@@H](Cc1c[nH]c2ccccc12)C(N)=O is ____.
Reply: 52

----------
Molecular target: MMP9 (Homo sapiens (Human), UniProt P14780)
Assay: Resistance to decomposition by matrix protease MMP9
Format: in vitro ADME
Details: isolated matrix protease MMP9, read-out: amount retained after treatment with MMP9
measure.name: remaining at 72 h

Query: Fill in the blank: the reported remaining at 72 h of CC(C)C[C@H](NC(=O)CNC(=O)[C@H](Cc1ccccc1)NC(=O)c1ccc(F)cc1)C(=O)N[C@@H](CCCN=C(N)N)C(=O)N[C@@H](Cc1c[nH]c2ccccc12)C(N)=O [Compound 1, reference compound] is ____.
Reply: ~50%

----------
Biological target: GPR54 (Homo sapiens (Human))
Sequence (Q969F8 whole entry): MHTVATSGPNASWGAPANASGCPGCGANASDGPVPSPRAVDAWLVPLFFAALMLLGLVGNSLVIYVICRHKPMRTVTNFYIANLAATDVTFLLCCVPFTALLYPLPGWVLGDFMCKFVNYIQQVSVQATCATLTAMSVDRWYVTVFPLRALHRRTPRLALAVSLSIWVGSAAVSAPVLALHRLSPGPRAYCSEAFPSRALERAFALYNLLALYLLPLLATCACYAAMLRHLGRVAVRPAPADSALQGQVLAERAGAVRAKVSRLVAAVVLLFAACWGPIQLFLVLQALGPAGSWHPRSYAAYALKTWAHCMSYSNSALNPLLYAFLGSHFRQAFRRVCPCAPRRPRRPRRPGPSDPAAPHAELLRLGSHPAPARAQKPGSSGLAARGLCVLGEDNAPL
Assay: Flipr assay of GPR54 agonist activity (increase in intracellular Ca2+ ion concentration)
Format: cell-based
Conditions: signal upon addition of 10 nM compound, based on signal of 1 μM kisspeptin-10 as 100%
Tick YES if activity at 0.01 µM is 50% or greater. Tick NO if activity at 0.01 µM is less than 50%.

Query: Test whether the compound CC(C)C/C(=C\[C@H](O)CNC(=O)[C@H](Cc1ccccc1)NC(=O)c1ccc(F)cc1)C(=O)N[C@@H](CCCN=C(N)N)C(=O)N[C@@H](Cc1c[nH]c2ccccc12)C(N)=O records activity at 0.01 µM of 50% or higher.
Reply: NO

Query: Test whether the compound CC(C)C[C@H](CCCNC(=O)[C@H](Cc1ccccc1)NC(=O)c1ccc(F)cc1)C(=O)N[C@@H](CCCNC(=N)N)C(=O)N[C@@H](Cc1c[nH]c2ccccc12)C(N)=O records activity at 0.01 µM of 50% or higher.
Reply: YES

Query: Test whether the compound CC(C)C[C@H](/C=C/CNC(=O)[C@H](Cc1ccccc1)NC(=O)c1ccc(F)cc1)C(=O)N[C@@H](CCCN=C(N)N)C(=O)N[C@@H](Cc1c[nH]c2ccccc12)C(N)=O records activity at 0.01 µM of 50% or higher.
Reply: YES

Query: Test whether the compound CC(C)C[C@H](NC(=O)CNC(=O)[C@H](Cc1ccccc1)NC(=O)c1ccc(F)cc1)C(=O)N[C@@H](CCCN=C(N)N)C(=O)N[C@@H](Cc1c[nH]c2ccccc12)C(N)=O [Compound 1, reference compound] records activity at 0.01 µM of 50% or higher.
Reply: YES

Query: Test whether the compound CC(C)C/C(=C\[C@@H](O)CNC(=O)[C@H](Cc1ccccc1)NC(=O)c1ccc(F)cc1)C(=O)N[C@@H](CCCNC(=N)N)C(=O)N[C@@H](Cc1c[nH]c2ccccc12)C(N)=O records activity at 0.01 µM of 50% or higher.
Reply: NO

----------
Test: Half-life of the compound in the serum
Details: in the serum
Would you kindly list t1/2 for each of these molecules?
Give the value in h but do not write h after it.

Query: Fill in the blank: the reported t1/2 of CC(C)CC(C[C@@H](O)CNC(=O)[C@H](Cc1ccccc1)NC(=O)c1ccc(F)cc1)C(=O)N[C@@H](CCCNC(=N)N)C(=O)N[C@@H](Cc1c[nH]c2ccccc12)C(N)=O (single isomer, unassigned) [Compound 24b] is ____.
Reply: 54

Query: Fill in the blank: the reported t1/2 of CC(C)CC(C[C@H](O)CNC(=O)[C@H](Cc1ccccc1)NC(=O)c1ccc(F)cc1)C(=O)N[C@@H](CCCNC(=N)N)C(=O)N[C@@H](Cc1c[nH]c2ccccc12)C(N)=O (single isomer, unassigned) [Compound 25b] is ____.
Reply: 35

Query: Fill in the blank: the reported t1/2 of CC(C)CC(C[C@H](O)CNC(=O)[C@H](Cc1ccccc1)NC(=O)c1ccc(F)cc1)C(=O)N[C@@H](CCCNC(=N)N)C(=O)N[C@@H](Cc1c[nH]c2ccccc12)C(N)=O (single isomer, unassigned) [Compound 25a] is ____.
Reply: 120

Query: Fill in the blank: the reported t1/2 of CC(C)CC(C[C@@H](O)CNC(=O)[C@H](Cc1ccccc1)NC(=O)c1ccc(F)cc1)C(=O)N[C@@H](CCCNC(=N)N)C(=O)N[C@@H](Cc1c[nH]c2ccccc12)C(N)=O (single isomer, unassigned) [Compound 24a] is ____.
Reply: 470

----------
Would you kindly list % Activity for each of these compounds?
Target: GPR54 (Homo sapiens (Human))
Assay: Flipr assay of GPR54 agonist activity (increase in intracellular Ca2+ ion concentration)
Assay type: cell-based
Conditions: signal upon addition of 10 nM compound, based on signal of 1 μM kisspeptin-10 as 100%
Give the value in % but do not write % after it.

Query: Fill in the blank: the reported % Activity of CC(C)CC(C[C@@H](O)CNC(=O)[C@H](Cc1ccccc1)NC(=O)c1ccc(F)cc1)C(=O)N[C@@H](CCCNC(=N)N)C(=O)N[C@@H](Cc1c[nH]c2ccccc12)C(N)=O (single isomer, unassigned) [Compound 24b] is ____.
Reply: 53.9

Query: Fill in the blank: the reported % Activity of CC(C)CC(C[C@H](O)CNC(=O)[C@H](Cc1ccccc1)NC(=O)c1ccc(F)cc1)C(=O)N[C@@H](CCCNC(=N)N)C(=O)N[C@@H](Cc1c[nH]c2ccccc12)C(N)=O (single isomer, unassigned) [Compound 25b] is ____.
Reply: 95.6

Query: Fill in the blank: the reported % Activity of CC(C)CC(C[C@H](O)CNC(=O)[C@H](Cc1ccccc1)NC(=O)c1ccc(F)cc1)C(=O)N[C@@H](CCCNC(=N)N)C(=O)N[C@@H](Cc1c[nH]c2ccccc12)C(N)=O (single isomer, unassigned) [Compound 25a] is ____.
Reply: 13.8

Query: Fill in the blank: the reported % Activity of CC(C)CC(C[C@@H](O)CNC(=O)[C@H](Cc1ccccc1)NC(=O)c1ccc(F)cc1)C(=O)N[C@@H](CCCNC(=N)N)C(=O)N[C@@H](Cc1c[nH]c2ccccc12)C(N)=O (single isomer, unassigned) [Compound 24a] is ____.
Reply: 0.6
